METHOD_SUMMARY: Midazolam plasma pharmacokinetics with or without capivasertib (part A)
TEST_CONDITIONS: human, plasma, oral, tmax, median (range); day 8 of cycle 1, midazolam 1 mg on 3rd day off capivasertib 400 mg BID; N = 16
OBSERVATION_TYPE: tmax

# lookup: tmax of Cc1ncc2n1-c1ccc(Cl)cc1C(c1ccccc1F)=NC2 [midazolam, reference compound]
~30 min

###

METHOD_SUMMARY: Midazolam plasma pharmacokinetics with or without capivasertib (part A)
TEST_CONDITIONS: human, plasma, oral, AUCinf, geometric mean (gCV%); day 12 of cycle 1, midazolam 1 mg on 4th day on capivasertib 400 mg BID; N = 15
OBSERVATION_TYPE: AUC(0-inf)

If you can, please state the reported AUC(0-inf) value of Cc1ncc2n1-c1ccc(Cl)cc1C(c1ccccc1F)=NC2 [midazolam, reference compound] .
39.5 ng·h/mL
